Every entry's value here was drawn from the supplement of paper PMC10567573.

METHOD NOTES: protein stability index of a GFP-peptide fusion (GPS, HEK-293T) (PSI 1-6); higher = more stable;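 further: 24-mer peptide tiles fused after GFP, lentivirally expressed, FACS-sorted into six equal bins by GFP/DsRed ratio, decoded by Illumina sequencing, PSI is the read-weighted mean bin number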
MEASUREMENT CONDITIONS: treatment: MLN4924 1 uM, 8 h; c terminus: a fixed tail appended
VALUE TYPE: protein stability index
Format: numeric value only, no unit, no commentary.

Completed entries (count: 10):
Prompt line: # get_value(readout='protein stability index', item= KMNLYESFAQATQLGDLHTCLMMD [INTS3] )
Response line: 2.58

Prompt line: Same for ETTGIQIWSEVFTVEKPGGKKVAV [ATL3]
Response line: 3.01

Prompt line: Same for CYTFSVLITFDNKAHSGRIPISLE [MCOLN1]
Response line: 3.3

Prompt line: Same for AKLVDLPCVIESLRTLDKKTFYKT [TAF7L]
Response line: 2.18

Prompt line: Same for QWSSDVAPTSTCRTSVGVAVLGGF [KLHL20]
Response line: 2.71

Prompt line: Same for FHPDPRQKALYRRLATVHMSRMIN [CLPTM1]
Response line: 2.39

Prompt line: Same for AIIASLTFLYTLLREVIHPLATSH [STEAP1]
Response line: 2.89

Prompt line: Same for ELLQQLDLNNCKNNLEPILEGYIS [KRT71]
Response line: 2.62

Prompt line: Same for KHLLNLGVEIDEINVYGNTALHIA [ANKRD44]
Response line: 2.07

Prompt line: Same for CLPLTFCIHTGLSQYIAVEAAEGR [FBXO3]
Response line: 2.4

New cases:
Prompt line: # get_value(readout='protein stability index', item= VLAARSPVFNAMFEHEMEESKKNR [SPOPL] )
Response line: 4.27

Prompt line: Same for KRFASLSRFVETLVVADDKMAAFH [ADAMTS4]
Response line: 2.06

Prompt line: Same for FETMAIEIEQLLARLTGVNDKMAE [GOSR1]
Response line: 3.15

Prompt line: Same for PESRSLPSSPLRLGSYKAQKTSRS [PPEF2]
Response line: 5.14

Prompt line: Same for ESQKKKQQDDSDEYDDDDSAASTS [ZNF207]
Response line: 5.53

Prompt line: Same for ARERAKLQIELGKCKAEHDQLLLN [LMNB1]
Response line: 3.14

Prompt line: Same for QAGSSQGLSLCQFQNFSLHDPLYG [LPCAT4]
Response line: 2.98

Prompt line: Same for ISGVTKAISSPTVSRLTDTTKFTG [TPPP]
Response line: 3.85

----------
METHOD NOTES: protein stability index of a GFP-peptide fusion (GPS, HEK-293T) (PSI 1-6); higher = more stable
MEASUREMENT CONDITIONS: treatment: MLN4924 1 uM, 8 h; c terminus: a fixed tail appended
Assign a class from recorded protein stability index; defined classes: bin A: < 3; bin B: ≥ 3 and < 4; bin C: ≥ 4

Prompt line: Determine which band this sequence sits in: LTGQKAVKVHGLLKTFVKQTDHIK [GFOD1]
Response line: bin A

Prompt line: Same for IIYMAILLTHRCLRDEHRCASKYG [DHCR7]
Response line: bin A

Prompt line: Same for SVILNHMAREHAFNIGLPDNIVNC [ZNF277]
Response line: bin A

Prompt line: Same for NDAYGPPSNFLEIDVSNPQTVGVG [SNX3]
Response line: bin C

Prompt line: Same for TAILIECGADVNVRDSDDNSPLHI [FEM1C]
Response line: bin B

Prompt line: Same for GSGGGYGGGMRVCGFGGGAGSVFG [KRT15]
Response line: bin A

Prompt line: Same for EEFILLSQGEVEKLIKCDEIQVDS [KLHL12]
Response line: bin C

Prompt line: Same for YCFCGWIVLGPYHVKFRSLSMVSE [MCOLN1]
Response line: bin B

Prompt line: Same for CIHTGLSQYIAVEAAEGRNKNEVF [FBXO3]
Response line: bin B

Prompt line: Same for ALQVPRGKEDSTLQLLREENRALQ [CBY2]
Response line: bin C

New cases:
Prompt line: Determine which band this sequence sits in: WMIEEKATITSRGSSLSGSLCSLL [LURAP1L]
Response line: bin A

Prompt line: Same for SESGKLVTKMFQKIQDLIDDKDAL [TRIP13]
Response line: bin B

Prompt line: Same for EQLFFVRLVGKTPIETLIRDMLLS [NR2F2]
Response line: bin A

Prompt line: Same for TTFSTTSGYMEGYYTFHFLYFKDK [FBXO3]
Response line: bin A

Prompt line: Same for PDPEPPPVTPQVGEGRKSRKFSRL [SMG5]
Response line: bin C
